# assay.system: SARS-CoV-2 RBD (RBD-2) (SARS-CoV-2)
# protocol: flow, HeLa-ACE2, mAb:RBD=2:1
quantity.measured: % inhibition of RBD binding to hACE2 (%)
Field: numeric (%). Do not append units.

I'd like to know its % inhibition of RBD binding to hACE2. The binder in question is L12.bP12H09 (antibody, V domains shown, human IgG1) VH: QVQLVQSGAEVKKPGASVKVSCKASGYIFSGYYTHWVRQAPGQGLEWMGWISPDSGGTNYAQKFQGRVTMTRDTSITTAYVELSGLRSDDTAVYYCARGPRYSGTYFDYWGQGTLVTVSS VL: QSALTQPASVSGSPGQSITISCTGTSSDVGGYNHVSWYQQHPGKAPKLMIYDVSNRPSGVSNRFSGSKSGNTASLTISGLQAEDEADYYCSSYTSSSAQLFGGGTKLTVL 41.6

// % inhibition of RBD binding to hACE2 lookup, key: L12.bP11C10 (antibody, V domains shown, human IgG1) VH: QVQLVQSGAEVKKPGASVKVSCKASGYIFSGYYMHWVRQAPGQGLEWMGWISPDSGGTNYAQKFQGRVTMTRDTSITTGYMELSGLRSDDTAVYYCARGPRYSGTYFDYWGQGTLVTISS VL: QSALTQPTSVSGSPGQSITISCTGTSSDVGGYNYVSWYQQHPGKAPKLIIYDVSNRPSGVSNRFSGSKSGNTASLTISGLQAEDEADYYCSSYTVSSTQVFGGGTKLTVL 38.5

Please give the measured % inhibition of RBD binding to hACE2 for this binder: L12.cP08D07 (antibody, V domains shown, human IgG1) VH: QVQLQESGPGLVKPSETLSLTCTVSGGSISSSSYYWGWIRQPPGKGLEWIGSIYYSGSTYYNPSLKSRVTISVDTSKNQFSLKLSSVTAADTAVYYCARQGDCSTTSCAYDYWGQGTLVTVSS VL: SYELTQPPSVSVSPGQTARITCSGDALPKQYAYWYQQKPGQAPVLVIYKDSERPSGIPERFSGSSSGTTATLTISGVQAEDEADYYCQSADSSGTYLVVFGGGTKLAVL 3

# get_value(readout='% inhibition of RBD binding to hACE2', item= L12.bP10G07 (antibody, V domains shown, human IgG1) VH: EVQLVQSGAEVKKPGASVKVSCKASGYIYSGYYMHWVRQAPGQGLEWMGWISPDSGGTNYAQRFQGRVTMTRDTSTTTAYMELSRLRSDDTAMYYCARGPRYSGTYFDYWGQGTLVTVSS VL: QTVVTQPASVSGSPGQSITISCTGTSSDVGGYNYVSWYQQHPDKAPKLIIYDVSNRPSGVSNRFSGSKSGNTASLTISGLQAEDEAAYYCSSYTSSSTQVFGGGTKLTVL ) 36.6
